Value source: PubChem BioAssay (NCATS)

Test system: CP217
Assay: qHTS profiling for inhibitors of Plasmodium falciparum proliferation (AID 504749); note: nearly all actives have a fitted effect of over 60% in size
Details: P. falciparum in erythrocytes, SYBR Green DNA, 72 h; series mostly up to 12.8 µM
Results filed as inconclusive are left out. Active and inactive are the calls of the source. Calls come from the whole dose curve; as a rule, active = well fitted inhibition curve with a large enough effect; inconclusive = small, poorly fitted or top-dose-only effect; inactive = flat fitted curve, though single readings scatter. Peptide text beside a SMILES is read from it.
Outcomes: yes (active), no (inactive)

- C[C@@H]1O[C@H](O[C@@H]2\C=C/C=C\C=C/C=C\C[C@H](C)OC(=O)/C=C\[C@H]3O[C@@H]3C[C@H](O)C[C@]3(O)C[C@@H](O)[C@@H](C(=O)O)[C@H](C2)O3)[C@@H](O)[C@H](N)[C@@H]1O (stereo in doubt): no
- Cc1cccc(C)c1NC(=O)[C@H](C)N: no
- COc1cc(N[C@@H](C)CCCN)c2ncccc2c1: yes
- CC1(C)SC2C(N3C(=O)C(c4ccccc4)NC3(C)C)C(=O)N2C1C(=O)O (configuration not stated): no
- CC[C@H]1NC(=O)c2cc(S(N)(=O)=O)c(Cl)cc2N1: no
- CC1(C)S[C@H]2C(NC(=O)[C@@H](N)c3ccc(O)cc3)C(=O)N2[C@@H]1C(=O)O (some centres not stated): no
- CC(=O)C[C@H](c1ccc([N+](=O)[O-])cc1)c1c(O)c2ccccc2oc1=O: no
- Cc1ccc(S(=O)(=O)NC(=O)NN2C[C@H]3CCC[C@@H]3C2)cc1: no
- O=C(O)[C@@H]1CCCN1: no
- CC(=C(CCOP(=O)(O)O)SC(=O)c1ccccc1)N(C=O)Cc1cnc(C)nc1N: no
- CC1(C)[C@@H](OC(=O)CCC(=O)O)CC[C@@]2(C)[C@H]1CC[C@@]1(C)[C@H]2C(=O)C=C2[C@H]3C[C@](C)(C(=O)O)CC[C@]3(C)CC[C@@]21C: no
- CC(C)(C)NC[C@H](O)COc1cccc2c1CCC(=O)N2: no
- NC[C@@H]1O[C@H](O[C@H]2[C@H](O)[C@H](O[C@@H]3O[C@H](CO)[C@@H](O)[C@H](N)[C@@H]3O)[C@@H](N)C[C@H]2N)[C@@H](O)[C@H](O)[C@@H]1O: no
- CCN(CCCCOC(=O)c1ccc(OC)c(OC)c1)[C@@H](C)Cc1ccc(OC)cc1: no
- CN(C)CCn1nnnc1SCC1=C(C(=O)O)N2C(=O)[C@@H](NC(=O)Cc3csc(N)n3)[C@@H]2SC1: no
- COC(=O)C(Cc1ccccc1)NC(=O)C(N)CC(=O)O (stereo not drawn) (H-Asp-Phe-OMe; configuration not given here): no
- C1CCN2C[C@@H]3C[C@@H](CN4CCCC[C@H]34)[C@H]2C1: no

* * *

Tested on: FAB9
Test: qHTS profiling for inhibitors of Plasmodium falciparum proliferation (AID 504749); note: nearly all actives have a fitted effect of over 60% in size
Settings: P. falciparum in erythrocytes, SYBR Green DNA, 72 h; series mostly up to 12.8 µM
Procedure: NIH National Institute of Allergy and Infectious Diseases [NIAID] NIH Chemical Genomics Center [NCGC] […] Because mature erythrocytes lack DNA, only Plasmodium-derived DNA is detected. NCGC Assay Protocol Summary: The SYBR Green viability assay was adapted from a method described previously (Plouffe et al., 2008). […] The following morning, fluorescence intensity at 485(14) nm excitation and 535(25) nm emission wavelengths was measured on an EnVision (Perkin Elmer) plate reader. […]
Inconclusive results are not listed. Activity calls are given as the source filed them. Calls follow the shape of the dose curve; as a rule, active = well fitted inhibition curve with a large enough effect; inconclusive = small, poorly fitted or top-dose-only effect; inactive = flat fitted curve, though single readings scatter.
Readout kind: outcome

* CC[C@@H]1OC(=O)[C@H](C)[C@H](O[C@@H]2C[C@](C)(OC)[C@H](O)[C@H](C)O2)[C@H](C)[C@H](O[C@@H]2O[C@@H](C)C[C@@H](N(C)C)[C@@H]2O)[C@](C)(O)C[C@H](C)C(=NOCOCCOC)[C@H](C)[C@H](O)[C@]1(C)O | inactive
* CN(C/C=C\c1ccccc1)Cc1cccc2ccccc12 | inactive
* CCN[C@@H]1C[C@H](N)[C@H](O[C@H]2OC(CN)=CC[C@H]2N)[C@@H](O)[C@H]1O[C@H]1OC[C@@](C)(O)[C@@H](NC)[C@@H]1O | inactive
